Assay: HepG2 cells viability qHTS for Zika virus inhibitors (AID 1347168)
Settings: Zika counter-screen; series mostly up to 45.9 µM
Inconclusive results are not listed. Calls of active or inactive are those of the source. Calls follow the shape of the dose curve; as a rule, active = well fitted cell-killing curve with a large enough effect; inconclusive = small, poorly fitted or top-dose-only effect; inactive = flat fitted curve, though single readings scatter. Numbered stars: 1 amine (or outer) side, 2 acyl side, 3 side chain; on linkers, the order of the positions; unused ones are H or OH. Bridge positions count the residues as written; N and C are the ends. Square brackets hold non-standard residues; d marks the D form. Peptide text beside a SMILES is read from it. I, II: the chains in the order shown. Actinocin(9to1) = Cc1c2oc3c(C)ccc(C(=O)[*:1])c3nc-2c(C(=O)[*:2])c(N)c1=O; aThr = C[C@H](O)[C@H](N)C(=O)O; NMeV = CN[C@H](C(=O)O)C(C)C; Sar = CNCC(=O)O
Hi! Could you answer with just one of these? active, inactive

Query: Fill in: this test's call for CCOc1ccc(C2C(=O)N(C3CCCCC3)CC(=O)N2Cc2ccc(F)cc2)cc1OC (stereo not drawn) is ___
Reply: inactive

Query: Please indicate how the test categorized "O=C1c2c(O)ccc([N+](=O)[O-])c2C(=O)c2c([N+](=O)[O-])ccc(O)c21" .
Reply: active

Query: Please state the recorded outcome for this compound: CCOc1ccc(C2C(=O)N(C3CCCCCC3)CC(=O)N2CCc2ccc(Cl)cc2)cc1OC (stereo not drawn)
Reply: inactive

Query: Hi team, can someone confirm the assay call for CC1(C(=O)O)NCCc2cc(O)c(O)cc21 (stereo not drawn) ?
Reply: inactive

Query: Per the assay record, what outcome was assigned to "Cc1cc(C)cc(C(=O)N(C)[C@H](Cc2ccc(-c3ccccc3)cc2)C(=O)N[C@@H](Cc2c[nH]c3ccccc23)C(=O)O)c1" ?
Reply: inactive

Further cases:
Query: Assay outcome for "O=C(O)c1c(Sc2ccccc2)c2cc(Cl)ccc2n1Cc1ccc(Cl)cc1" : what was it?
Reply: inactive

Query: Just curious, what result did Cc1c2oc3c(C)ccc(C(=O)N[C@@H]4C(=O)N[C@@H](C(C)C)C(=O)N5CCC[C@@H]5C(=O)N(C)CC(=O)N(C)[C@@H](C(C)C)C(=O)O[C@H]4C)c3nc-2c(C(=O)N[C@@H]2C(=O)N[C@@H](C(C)C)C(=O)N3CCC[C@@H]3C(=O)N(C)CC(=O)N(C)[C@@H](C(C)C)C(=O)O[C@H]2C)c(N)c1=O (I: [aThr]V[dP][Sar][NMeV] / II: [aThr]V[dP][Sar][NMeV]; ester I:1-I:C, II:1-II:C; linker I:N-II:N via Actinocin(9to1)) get here?
Reply: inactive

Query: Which outcome was entered for the compound "Nc1ncnc2c1ncn2[C@@H]1O[C@H](C[C@@H](N)CC[C@H](N)C(=O)O)[C@@H](O)[C@H]1O" in this test?
Reply: inactive

Query: Hi, sorry to bother you, what did the test record for "CN(Cc1ccc(C(=O)O)cc1)c1ccc(OCc2c(-c3c(Cl)cccc3Cl)noc2C2CC2)nc1C(F)(F)F" ?
Reply: inactive

Query: I'd appreciate the recorded outcome for CN(Cc1cnc2nc(N)nc(N)c2n1)c1ccc(C(=O)NC(CCC(=O)O)C(=O)O)cc1 (stereo not drawn) from this test.
Reply: inactive

Query: Hi team, can someone confirm the assay call for "COc1ccc(-c2nc(C(=O)N3CCN(C)CC3)sc2-c2ccc(OC)cc2)cc1" ?
Reply: inactive

Query: # lookup: test call for "CCCCc1nn(-c2ccccc2C(F)(F)F)c(=O)n1Cc1ccc(-c2ccccc2S(=O)(=O)NC(=O)c2sccc2C)cc1"
Reply: inactive

Query: Call for entry CC(=O)N1c2ccc(-c3ccc(C(=O)O)cc3)cc2C(Nc2ccc(Cl)cc2)CC1C (stereo not drawn) :
Reply: inactive

Query: Per the assay record, what outcome was assigned to "COc1ccccc1N1CCN(CCn2c(=O)c3c(c4ccccc4n3C)n(C)c2=O)CC1" ?
Reply: inactive

Query: Hello, I am checking results. What call was entered for CCOc1nc2cccc(C(=O)OC(C)OC(=O)OC3CCCCC3)c2n1Cc1ccc(-c2ccccc2-c2nn[nH]n2)cc1 (stereo not drawn) ?
Reply: inactive

Query: Would you mind telling me which call this test gave CC1OC(OC2C(O)CC(OC3C(O)CC(OC4CCC5(C)C(CCC6C5CC(O)C5(C)C(C7=CC(=O)OC7)CCC65O)C4)OC3C)OC2C)CC(O)C1O (stereo not drawn) ?
Reply: inactive

Query: Kindly provide the recorded test outcome for the following compound: "C=CC(C)(C)c1[nH]c2ccccc2c1C1=C(O)C(=O)C(c2c[nH]c3c(CC=C(C)C)cccc23)=C(O)C1=O"
Reply: inactive

Query: // outcome(item) with item = "O=C(NCc1ccc(Oc2ccccc2)cc1)c1nc(-c2cc(Br)c(O)c(Br)c2)no1"
Reply: inactive

---

Tested on: Zika virus NS2B-NS3 protease (linked construct)
Assay: Primary screen NINDS Rhodamine qHTS for Zika virus inhibitors (AID 1347160); also: nearly all actives have a fitted effect of over 55% in size; also: potency is read from the fitted curve at half-maximal effect
Details: purified NS2B-NS3 protease, Rhodamine110 substrate fluorescence; series mostly up to 57.1 µM
Records with an inconclusive call do not appear. The source made the active and inactive calls. Calls follow the shape of the dose curve; as a rule, active = well fitted inhibition curve with a large enough effect; inconclusive = small, poorly fitted or top-dose-only effect; inactive = no such curve, though single readings can be large or run the other way.
assay-readout: Potency

Below, each entry is followed by its recorded Potency result.
Summary for this molecule, "CCOc1cc(CNC2CCCC2)cc(Cl)c1OCc1ccc(Cl)cc1" : Potency is inactive

Notebook: CC[C@]1(O)C[C@H]2CN(CCC3C(=Nc4ccccc43)[C@@](C(=O)OC)(c3cc4c(cc3OC)N(C)[C@H]3[C@@](O)(C(N)=O)[C@H](O)[C@]5(CC)C=CCN6CC[C@]43[C@@H]65)C2)C1 (some centres not stated) , Potency read as inactive

Potency for C/C(=C\[C@H](C)C(=O)CCCC1CC(=O)NC(=O)C1)C(O)[C@@H](C)[C@H](O)C/C=C/CC/C=C/C(=O)O (some centres not stated) is 55.3 µM (active)

Notebook: "CC(C)(C)c1ccc(-c2nc3ccccc3[nH]2)cc1" , Potency read as inactive

The recorded Potency for "CCCCOc1ccc(-c2cncc(C(=O)NCc3cccnc3N3CCOCC3)c2)cc1Cl" is inactive

Reported Potency of CC1(C)CC[C@]2(C(=O)OC3OC(CO)C(O)C(O)C3O)CC[C@]3(C)C(=CCC4[C@@]5(C)CC[C@H](OC6OC(C(=O)O)C(O)C(O)C6O)C(CO)(CO)C5CC[C@]43C)[C@@H]2C1 (some centres not stated) : inactive

// each listed molecule needs a value for Potency
1. CCCCCCCCCCCCCCCC(=O)OC/C=C(\C)CCCC(C)CC(C)C(C)C (configuration not stated)
2. C[C@H]1C[C@@H]([C@@H]2CC[C@]34O[C@H](CC[C@@]35C[C@H](C)C(=O)O5)CN24)OC1=O
3. CNCc1ccc(C)c(NC(=O)c2ccc(Nc3nc(-c4ccccc4)c4ccccc4n3)cc2)c1
4. C=C(C(=O)O)C1CC2=C(C)C(=O)CC2C(C)CC1O (configuration not stated)

Reply:
55.3 µM (active)
inactive
inactive
inactive

---

Assay: Secretion counterscreen for inhibitors of the SERCaMP assay screened against the NCATS CANVASS Library (AID 1347390);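 also: light from luciferase secreted into medium read as a measure of general secretion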
Settings: SH-SY5Y constitutive GLuc secretion, luminescence, 20 h; series mostly up to 76.6 µM
Inconclusive results are not listed. Active and inactive are the calls of the source. Calls come from the whole dose curve; as a rule, active = well fitted inhibition curve with a large enough effect; inconclusive = small, poorly fitted or top-dose-only effect; inactive = no such curve, though single readings can be large or run the other way.
Thanks in advance; please answer with one of these: YES = active, NO = inactive

Query: What outcome does the record of this test show for C=C1C[C@@]23C=CC(=O)[C@@](C)(CCC(=O)Nc4c(OC5O[C@H](CO)[C@@H](O)[C@H](O)[C@H]5O)ccc(C(=O)O)c4O)C2C[C@@H]1CC3 (stereo not given in full) ?
Reply: NO

Further cases:
Query: Outcome logged for Oc1ccc([C@H]2Oc3ccc(/C=C/c4cc(O)cc(O)c4)cc3C2c2cc(O)cc(O)c2)cc1 (stereo not given in full) in this assay:
Reply: NO

Query: I would be grateful if you could indicate the recorded call for "CO[C@@H]1C[C@@H](C[C@H]2CC[C@H](C)[C@H]([C@@H](C)C(=O)O)O2)O[C@]2(O[C@](C)([C@H]3CC[C@@](C)([C@@H]4O[C@@H]([C@H]5O[C@](C)(O)[C@H](C)C[C@@H]5C)C[C@@H]4C)O3)C[C@H]2C)[C@@H]1C" .
Reply: YES

Query: So what was the verdict on "CC1(C)C=Cc2c(ccc3c2OC[C@@H](c2ccc(O)cc2O)C3)O1" in this test?
Reply: NO

---

Assay: qHTS for Inhibitors of Plasmodium falciparum (7G8) proliferation (AID 504316); also: nearly all actives have a fitted effect of over 65% in size; also: potency is read from the fitted curve at half-maximal effect
Details: P. falciparum 7G8 in erythrocytes, SYBR Green DNA, 72 h; series mostly up to 6.7 µM
Description: Plasmodium falciparum is a virulent malarial parasite that kills 1-2 million people worldwide each year. Malaria not only inflicts tremendous suffering and morbidity on the human population, but has dramatically influenced the course of civilization with profound sociological and economic implications (Shah, S. 2010). […] Because mature erythrocytes lack DNA, only Plasmodium-derived DNA is detected. […]
Results filed as inconclusive are left out. Calls of active or inactive are those of the source. The call rests on the fitted dose curve; in most records, active means well fitted inhibition curve with a large enough effect; inconclusive means small, poorly fitted or top-dose-only effect; inactive means flat fitted curve, though single readings scatter.
assay-readout: Potency

Worked cases, answers included:
// field: Potency; key: CC1(OC(=O)c2ccco2)C(=O)C=C2C=C(c3ccsc3)OC=C2C1=O (stereo not given) ; value = inactive

Please fill in: Potency reported for "COC(=O)CC=C[C@@H](C)[C@H](NC(=O)OCC(Cl)(Cl)Cl)c1ccccc1" = inactive

Potency reading for "COC(=O)C(=Cc1cc(Br)c(OC)c(Br)c1)C(=O)OC" : inactive

Recorded Potency (compound "CC=COC(=O)N[C@@H](c1ccccc1)[C@]1(C(C)=O)CCOC1=O" ): inactive

Potency reported for this compound "COC(=O)[C@@H]1CC[C@H](C)[C@@H](c2ccc(C)cc2)N1C(=O)c1ccc(C=NO[C@H](C)c2cn([C@@H]3COC[C@@H]3O)nn2)cc1" : inactive

Give Potency for each listed item.
1. COC(=O)NC(c1ccccc1)c1c[nH]c2ccc(OC)cc12 (stereo not given)
2. O=C1CCCC1C(O)c1ccc2ccccc2c1 (stereo not given)
3. COc1ccc2c(c1)C(NC(=O)C(F)(F)F)CC21CCCCC1 (stereo not given)
4. C=C(C)C(=O)OC[C@H]1CN2[C@H](c3ccc(Br)cc3)[C@H](C)CC[C@H]2C(=O)O1
5. COc1ccccc1C=CC1=CC2(C)CC1(C)C(c1ccccc1OC)CC2=O (stereo not given)
6. COc1ccc(O[C@H]2C=C[C@@H](c3ccccc3)O[C@H]2COC(=O)CCC(C)=NOC[C@@H](C)[C@H](OCc2ccccc2)C(C)C)cc1
7. CCCC[C@]12Cc3cc(C#N)ccc3[C@H](O1)c1c(cc(C)n(Cc3ccccc3)c1=O)O2

Reply:
1. inactive
2. inactive
3. inactive
4. inactive
5. 1.69 µM (active)
6. 1.9 µM (active)
7. 1.69 µM (active)
